src = ChEMBL document CHEMBL3758163

Molecular target: Tyrosine-protein kinase Fer (Homo sapiens)
Assay: Inhibition of FER (unknown origin) at 500 nM
Entries and their inhibition values follow.
endpoint name: inhibition

# smiles entry, result value
rows = [
    ("CN(C)CCNC(=O)c1ccc(-c2cc3c(N[C@H](CO)c4ccccc4)ncnc3s2)cc1", "-4%"),
    ("C[C@@H](Nc1ncnc2sc(-c3ccc(C(=O)NCCN(C)C)cc3)cc12)c1ccccc1", "-4%"),
    ("COc1ccc(C(=O)NCCN(C)C)cc1-c1cc2c(N[C@H](C)c3ccccc3)ncnc2s1", "5%"),
    ("COc1cc(CO)ccc1-c1cc2c(Nc3ccc(F)c(Cl)c3)ncnc2s1", "-1%"),
    ("C#Cc1cccc(Nc2ncnc3cc(OCCOC)c(OCCOC)cc23)c1", "-1%"),
]

====

Assay: Antiproliferative activity against human OVCAR3 cells after 72 hrs by CellTiter-Glo assay
Type: functional, cell-based
Conditions: OVCAR-3, 72 h
Reported IC50 values for a set of compounds

# smiles entry, IC50 [µM]
rows = [
    ("COc1cc(CO)ccc1-c1cc2c(N[C@H](CO)c3ccccc3)ncnc2s1", 9.7),
    ("C#Cc1cccc(Nc2ncnc3cc(OCCOC)c(OCCOC)cc23)c1", 4.6),
]

====

Target: Aurora kinase B (Homo sapiens) (UniProt Q96GD4)
Sequence (Q96GD4 whole entry): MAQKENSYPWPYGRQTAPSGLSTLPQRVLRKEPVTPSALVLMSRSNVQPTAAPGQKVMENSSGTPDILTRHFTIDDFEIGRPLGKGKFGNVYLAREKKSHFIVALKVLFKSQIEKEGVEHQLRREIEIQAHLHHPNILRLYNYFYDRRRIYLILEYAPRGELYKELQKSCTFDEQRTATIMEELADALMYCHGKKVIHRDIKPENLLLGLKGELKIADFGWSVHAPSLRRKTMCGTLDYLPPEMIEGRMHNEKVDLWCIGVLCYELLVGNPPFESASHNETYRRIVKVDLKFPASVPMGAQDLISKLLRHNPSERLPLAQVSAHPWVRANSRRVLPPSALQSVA
Assay: Inhibition of AURKB (unknown origin) at 500 nM
Below: a set of entries, each annotated with reported inhibition.

# smiles entry, inhibition, %
data = [
    ("COc1cc(CO)ccc1-c1cc2c(Nc3ccccc3)ncnc2s1", 10),
    ("COc1ccc(C(=O)NCCN(C)C)cc1-c1cc2c(N[C@H](C)c3ccccc3)ncnc2s1", -2),
    ("C[C@@H](Nc1ncnc2sc(-c3ccccc3C(N)=O)cc12)c1ccccc1", 2),
    ("COc1cc(CO)ccc1-c1cc2c(N[C@H](CO)c3ccccc3)ncnc2s1", 10),
    ("COc1cc(CO)ccc1-c1cc2c(Nc3ccc(F)c(Cl)c3)ncnc2s1", 7),
    ("COc1cc(CO)ccc1-c1cc2c(N[C@H](C)c3ccccc3)ncnc2s1", 1),
]

====

Biological target: Tyrosine-protein kinase Lyn (Homo sapiens) (UniProt P07948)
Sequence (P07948 2-512 limits assumed): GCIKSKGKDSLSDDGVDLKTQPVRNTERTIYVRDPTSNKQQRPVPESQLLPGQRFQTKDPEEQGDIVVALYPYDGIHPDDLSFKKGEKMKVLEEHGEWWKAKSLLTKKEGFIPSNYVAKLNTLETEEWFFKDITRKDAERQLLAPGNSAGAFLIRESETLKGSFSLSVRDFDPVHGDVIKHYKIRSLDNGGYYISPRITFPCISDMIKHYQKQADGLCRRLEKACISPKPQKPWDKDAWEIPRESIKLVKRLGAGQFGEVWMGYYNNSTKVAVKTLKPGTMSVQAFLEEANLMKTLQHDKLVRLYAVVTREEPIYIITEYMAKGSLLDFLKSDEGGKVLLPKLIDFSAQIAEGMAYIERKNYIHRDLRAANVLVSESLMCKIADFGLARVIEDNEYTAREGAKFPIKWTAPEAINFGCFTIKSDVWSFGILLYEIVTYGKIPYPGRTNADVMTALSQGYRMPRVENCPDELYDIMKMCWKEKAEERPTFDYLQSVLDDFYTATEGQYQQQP
Test: Inhibition of LYN B (unknown origin) at 500 nM
Measured inhibition by item

# smiles entry, experimental system, inhibition [%]
measured = [
    ("CN(C)CCNC(=O)c1ccc(-c2cc3c(N[C@H](CO)c4ccccc4)ncnc3s2)cc1", "Tyrosine-protein kinase Lyn (Homo sapiens) (UniProt P07948)", 37),
    ("C[C@@H](Nc1ncnc2sc(-c3ccccc3C(N)=O)cc12)c1ccccc1", "Tyrosine-protein kinase Lyn (Homo sapiens) (UniProt P07948)", 16),
    ("COc1cc(CO)ccc1-c1cc2c(Nc3ccc(F)c(Cl)c3)ncnc2s1", "Tyrosine-protein kinase Lyn (Homo sapiens) (UniProt P07948)", 15),
    ("C[C@@H](Nc1ncnc2sc(-c3ccc(C(=O)NCCN(C)C)cc3)cc12)c1ccccc1", "Tyrosine-protein kinase Lyn (Homo sapiens) (UniProt P07948)", 41),
    ("C#Cc1cccc(Nc2ncnc3sc(-c4ccc(CO)cc4OC)cc23)c1", "Tyrosine-protein kinase Lyn (Homo sapiens) (UniProt P07948)", 9),
]

====

Target: UniProt:P05771
Sequence (P05771 2-671 limits assumed): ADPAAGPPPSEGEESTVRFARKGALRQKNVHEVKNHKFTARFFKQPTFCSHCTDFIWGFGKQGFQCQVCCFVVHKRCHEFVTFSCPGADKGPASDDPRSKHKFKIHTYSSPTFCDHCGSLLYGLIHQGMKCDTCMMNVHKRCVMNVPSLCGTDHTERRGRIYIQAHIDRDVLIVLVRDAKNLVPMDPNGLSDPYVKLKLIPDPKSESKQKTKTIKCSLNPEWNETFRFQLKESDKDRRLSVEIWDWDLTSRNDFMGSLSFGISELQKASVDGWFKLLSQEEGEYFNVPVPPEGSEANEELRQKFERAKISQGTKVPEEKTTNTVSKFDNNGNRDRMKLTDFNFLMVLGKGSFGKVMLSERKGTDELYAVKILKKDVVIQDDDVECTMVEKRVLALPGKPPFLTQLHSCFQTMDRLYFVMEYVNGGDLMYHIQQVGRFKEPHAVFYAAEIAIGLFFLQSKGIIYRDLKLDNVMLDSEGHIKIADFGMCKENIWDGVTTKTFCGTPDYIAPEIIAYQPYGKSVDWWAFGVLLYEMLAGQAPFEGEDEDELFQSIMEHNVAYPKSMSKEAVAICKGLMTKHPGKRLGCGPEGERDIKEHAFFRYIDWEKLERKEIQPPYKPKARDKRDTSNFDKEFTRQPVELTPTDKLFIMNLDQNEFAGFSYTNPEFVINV
Assay: Inhibition of PRKCB1 (unknown origin) at 500 nM
Entries and their inhibition values follow.

# smiles entry, inhibition (%)
records = [
    ("C#Cc1cccc(Nc2ncnc3sc(-c4ccc(CO)cc4OC)cc23)c1", -2),
    ("C[C@@H](Nc1ncnc2sc(-c3ccc(C(=O)NCCN(C)C)cc3)cc12)c1ccccc1", 2),
    ("CN(C)CCNC(=O)c1ccc(-c2cc3c(N[C@H](CO)c4ccccc4)ncnc3s2)cc1", 18),
    ("COc1cc(CO)ccc1-c1cc2c(Nc3ccc(F)c(Cl)c3)ncnc2s1", -2),
    ("COc1ccc(C(=O)NCCN(C)C)cc1-c1cc2c(N[C@H](C)c3ccccc3)ncnc2s1", -2),
]

====

Each entry below carries its reported inhibition.
Target: Tyrosine-protein kinase HCK (Homo sapiens)
Experiment: Inhibition of HCK (unknown origin) at 500 nM

# smiles entry, inhibition / %
measured = [
    ("COc1cc(CO)ccc1-c1cc2c(Nc3ccccc3)ncnc2s1", 28),
    ("COc1cc(CO)ccc1-c1cc2c(N[C@H](CO)c3ccccc3)ncnc2s1", 20),
    ("COc1ccc(C(=O)NCCN(C)C)cc1-c1cc2c(N[C@H](C)c3ccccc3)ncnc2s1", 15),
    ("COc1cc(C(N)=O)ccc1-c1cc2c(N[C@H](CO)c3ccccc3)ncnc2s1", 13),
    ("C[C@@H](Nc1ncnc2sc(-c3ccccc3C(N)=O)cc12)c1ccccc1", 2),
    ("CN(C)CCNC(=O)c1ccc(-c2cc3c(N[C@H](CO)c4ccccc4)ncnc3s2)cc1", 15),
    ("COc1cc(CO)ccc1-c1cc2c(N[C@H](C)c3ccccc3)ncnc2s1", 7),
    ("C[C@@H](Nc1ncnc2sc(-c3ccc(C(=O)NCCN(C)C)cc3)cc12)c1ccccc1", 3),
    ("C#Cc1cccc(Nc2ncnc3sc(-c4ccc(CO)cc4OC)cc23)c1", -4),
    ("COc1cc(CO)ccc1-c1cc2c(Nc3ccc(F)c(Cl)c3)ncnc2s1", 15),
]

====

Molecular target: Glycogen synthase kinase-3 beta (Homo sapiens)
Experiment: Inhibition of GSK3B (unknown origin) at 500 nM
A collection of compounds and their measured inhibition
endpoint name: inhibition

# compound, endpoint name, result value
records = [
    ("COc1cc(CO)ccc1-c1cc2c(N[C@H](C)c3ccccc3)ncnc2s1", "inhibition", "7%"),
    ("COc1cc(CO)ccc1-c1cc2c(N[C@H](CO)c3ccccc3)ncnc2s1", "inhibition", "8%"),
    ("COc1cc(C(N)=O)ccc1-c1cc2c(N[C@H](CO)c3ccccc3)ncnc2s1", "inhibition", "17%"),
    ("CN(C)CCNC(=O)c1ccc(-c2cc3c(N[C@H](CO)c4ccccc4)ncnc3s2)cc1", "inhibition", "3%"),
    ("C#Cc1cccc(Nc2ncnc3cc(OCCOC)c(OCCOC)cc23)c1 [ERLOTINIB]", "inhibition", "-8%"),
    ("COc1cc(CO)ccc1-c1cc2c(Nc3ccccc3)ncnc2s1", "inhibition", "5%"),
    ("C[C@@H](Nc1ncnc2sc(-c3ccccc3C(N)=O)cc12)c1ccccc1", "inhibition", "6%"),
    ("C#Cc1cccc(Nc2ncnc3sc(-c4ccc(CO)cc4OC)cc23)c1", "inhibition", "8%"),
    ("COc1ccc(C(=O)NCCN(C)C)cc1-c1cc2c(N[C@H](C)c3ccccc3)ncnc2s1", "inhibition", "13%"),
    ("COc1cc(CO)ccc1-c1cc2c(Nc3ccc(F)c(Cl)c3)ncnc2s1", "inhibition", "4%"),
    ("C[C@@H](Nc1ncnc2sc(-c3ccc(C(=O)NCCN(C)C)cc3)cc12)c1ccccc1", "inhibition", "5%"),
]

====

Reported inhibition values are given for each entry in this list.
Target: Tyrosine-protein kinase Fgr (Homo sapiens)
Assay: Inhibition of FGR (unknown origin) at 500 nM

# compound, inhibition [%]
rows = [
    ("C#Cc1cccc(Nc2ncnc3cc(OCCOC)c(OCCOC)cc23)c1 [ERLOTINIB]", 42),
    ("COc1cc(CO)ccc1-c1cc2c(N[C@H](C)c3ccccc3)ncnc2s1", 40),
    ("COc1cc(CO)ccc1-c1cc2c(Nc3ccccc3)ncnc2s1", 25),
    ("COc1cc(C(N)=O)ccc1-c1cc2c(N[C@H](CO)c3ccccc3)ncnc2s1", 40),
    ("C#Cc1cccc(Nc2ncnc3sc(-c4ccc(CO)cc4OC)cc23)c1", 11),
]

====

This section presents molecules with their documented inhibition values.
Target: Vascular endothelial growth factor receptor 1 (Homo sapiens) (UniProt P17948)
Sequence (P17948 whole entry): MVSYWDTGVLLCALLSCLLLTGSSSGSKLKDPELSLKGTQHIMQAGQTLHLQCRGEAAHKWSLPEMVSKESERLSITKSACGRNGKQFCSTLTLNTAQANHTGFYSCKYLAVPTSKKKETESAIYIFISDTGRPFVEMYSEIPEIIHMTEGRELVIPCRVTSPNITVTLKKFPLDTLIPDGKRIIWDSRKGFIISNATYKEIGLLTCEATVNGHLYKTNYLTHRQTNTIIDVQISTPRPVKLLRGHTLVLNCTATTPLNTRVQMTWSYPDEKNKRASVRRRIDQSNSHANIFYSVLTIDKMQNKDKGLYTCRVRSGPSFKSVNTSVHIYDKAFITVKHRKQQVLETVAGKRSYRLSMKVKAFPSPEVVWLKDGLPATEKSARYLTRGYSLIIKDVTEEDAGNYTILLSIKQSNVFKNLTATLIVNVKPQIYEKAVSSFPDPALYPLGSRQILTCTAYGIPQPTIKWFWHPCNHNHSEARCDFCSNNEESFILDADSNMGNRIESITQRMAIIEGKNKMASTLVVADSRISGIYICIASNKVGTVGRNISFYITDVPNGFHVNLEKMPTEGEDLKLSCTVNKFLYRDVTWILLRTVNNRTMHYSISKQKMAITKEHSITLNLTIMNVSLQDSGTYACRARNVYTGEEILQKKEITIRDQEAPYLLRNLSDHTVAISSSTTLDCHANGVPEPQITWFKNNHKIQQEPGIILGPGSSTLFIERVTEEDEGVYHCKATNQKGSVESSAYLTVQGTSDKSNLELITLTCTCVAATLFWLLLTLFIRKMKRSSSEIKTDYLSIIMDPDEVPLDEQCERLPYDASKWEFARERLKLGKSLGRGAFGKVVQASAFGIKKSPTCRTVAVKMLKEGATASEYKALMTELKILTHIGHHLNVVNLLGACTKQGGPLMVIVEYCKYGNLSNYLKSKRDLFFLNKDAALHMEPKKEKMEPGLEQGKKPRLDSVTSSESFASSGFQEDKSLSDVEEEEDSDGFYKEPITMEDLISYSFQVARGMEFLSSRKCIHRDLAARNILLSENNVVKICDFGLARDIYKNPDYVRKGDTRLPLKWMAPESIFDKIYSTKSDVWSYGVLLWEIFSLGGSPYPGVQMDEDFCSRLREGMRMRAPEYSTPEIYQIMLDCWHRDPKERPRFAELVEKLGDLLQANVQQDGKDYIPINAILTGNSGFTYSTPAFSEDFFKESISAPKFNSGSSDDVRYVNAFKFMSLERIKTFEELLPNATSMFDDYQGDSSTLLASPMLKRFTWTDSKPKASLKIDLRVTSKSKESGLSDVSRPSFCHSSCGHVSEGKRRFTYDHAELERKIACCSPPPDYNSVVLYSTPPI
Assay: Inhibition of FLT1 (unknown origin) at 500 nM

# smiles entry, inhibition (%)
records = [
    ("COc1cc(CO)ccc1-c1cc2c(Nc3ccccc3)ncnc2s1", 9),
    ("COc1cc(CO)ccc1-c1cc2c(N[C@H](C)c3ccccc3)ncnc2s1", 4),
    ("C[C@@H](Nc1ncnc2sc(-c3ccccc3C(N)=O)cc12)c1ccccc1", 4),
    ("C#Cc1cccc(Nc2ncnc3sc(-c4ccc(CO)cc4OC)cc23)c1", -7),
    ("COc1cc(C(N)=O)ccc1-c1cc2c(N[C@H](CO)c3ccccc3)ncnc2s1", 0),
]

====

Biological target: Proto-oncogene tyrosine-protein kinase Src (Homo sapiens)
Assay: Inhibition of SRC (unknown origin) at 500 nM

# smiles entry, inhibition / %
rows = [
    ("COc1cc(C(N)=O)ccc1-c1cc2c(N[C@H](CO)c3ccccc3)ncnc2s1", 20),
    ("COc1cc(CO)ccc1-c1cc2c(Nc3ccc(F)c(Cl)c3)ncnc2s1", 14),
    ("COc1ccc(C(=O)NCCN(C)C)cc1-c1cc2c(N[C@H](C)c3ccccc3)ncnc2s1", 9),
    ("COc1cc(CO)ccc1-c1cc2c(Nc3ccccc3)ncnc2s1", 17),
    ("COc1cc(CO)ccc1-c1cc2c(N[C@H](C)c3ccccc3)ncnc2s1", 10),
    ("C[C@@H](Nc1ncnc2sc(-c3ccc(C(=O)NCCN(C)C)cc3)cc12)c1ccccc1", 18),
    ("C#Cc1cccc(Nc2ncnc3sc(-c4ccc(CO)cc4OC)cc23)c1", 15),
    ("CN(C)CCNC(=O)c1ccc(-c2cc3c(N[C@H](CO)c4ccccc4)ncnc3s2)cc1", 17),
    ("C#Cc1cccc(Nc2ncnc3cc(OCCOC)c(OCCOC)cc23)c1", 42),
    ("COc1cc(CO)ccc1-c1cc2c(N[C@H](CO)c3ccccc3)ncnc2s1", 9),
    ("C[C@@H](Nc1ncnc2sc(-c3ccccc3C(N)=O)cc12)c1ccccc1", 12),
]
